- SYSTEM TESTED: Bromodomain adjacent to zinc finger domain protein 2B (Homo sapiens) (UniProt Q9UIF8)
- Sequence (Q9UIF8 whole entry, looked up, the tested form may be a part): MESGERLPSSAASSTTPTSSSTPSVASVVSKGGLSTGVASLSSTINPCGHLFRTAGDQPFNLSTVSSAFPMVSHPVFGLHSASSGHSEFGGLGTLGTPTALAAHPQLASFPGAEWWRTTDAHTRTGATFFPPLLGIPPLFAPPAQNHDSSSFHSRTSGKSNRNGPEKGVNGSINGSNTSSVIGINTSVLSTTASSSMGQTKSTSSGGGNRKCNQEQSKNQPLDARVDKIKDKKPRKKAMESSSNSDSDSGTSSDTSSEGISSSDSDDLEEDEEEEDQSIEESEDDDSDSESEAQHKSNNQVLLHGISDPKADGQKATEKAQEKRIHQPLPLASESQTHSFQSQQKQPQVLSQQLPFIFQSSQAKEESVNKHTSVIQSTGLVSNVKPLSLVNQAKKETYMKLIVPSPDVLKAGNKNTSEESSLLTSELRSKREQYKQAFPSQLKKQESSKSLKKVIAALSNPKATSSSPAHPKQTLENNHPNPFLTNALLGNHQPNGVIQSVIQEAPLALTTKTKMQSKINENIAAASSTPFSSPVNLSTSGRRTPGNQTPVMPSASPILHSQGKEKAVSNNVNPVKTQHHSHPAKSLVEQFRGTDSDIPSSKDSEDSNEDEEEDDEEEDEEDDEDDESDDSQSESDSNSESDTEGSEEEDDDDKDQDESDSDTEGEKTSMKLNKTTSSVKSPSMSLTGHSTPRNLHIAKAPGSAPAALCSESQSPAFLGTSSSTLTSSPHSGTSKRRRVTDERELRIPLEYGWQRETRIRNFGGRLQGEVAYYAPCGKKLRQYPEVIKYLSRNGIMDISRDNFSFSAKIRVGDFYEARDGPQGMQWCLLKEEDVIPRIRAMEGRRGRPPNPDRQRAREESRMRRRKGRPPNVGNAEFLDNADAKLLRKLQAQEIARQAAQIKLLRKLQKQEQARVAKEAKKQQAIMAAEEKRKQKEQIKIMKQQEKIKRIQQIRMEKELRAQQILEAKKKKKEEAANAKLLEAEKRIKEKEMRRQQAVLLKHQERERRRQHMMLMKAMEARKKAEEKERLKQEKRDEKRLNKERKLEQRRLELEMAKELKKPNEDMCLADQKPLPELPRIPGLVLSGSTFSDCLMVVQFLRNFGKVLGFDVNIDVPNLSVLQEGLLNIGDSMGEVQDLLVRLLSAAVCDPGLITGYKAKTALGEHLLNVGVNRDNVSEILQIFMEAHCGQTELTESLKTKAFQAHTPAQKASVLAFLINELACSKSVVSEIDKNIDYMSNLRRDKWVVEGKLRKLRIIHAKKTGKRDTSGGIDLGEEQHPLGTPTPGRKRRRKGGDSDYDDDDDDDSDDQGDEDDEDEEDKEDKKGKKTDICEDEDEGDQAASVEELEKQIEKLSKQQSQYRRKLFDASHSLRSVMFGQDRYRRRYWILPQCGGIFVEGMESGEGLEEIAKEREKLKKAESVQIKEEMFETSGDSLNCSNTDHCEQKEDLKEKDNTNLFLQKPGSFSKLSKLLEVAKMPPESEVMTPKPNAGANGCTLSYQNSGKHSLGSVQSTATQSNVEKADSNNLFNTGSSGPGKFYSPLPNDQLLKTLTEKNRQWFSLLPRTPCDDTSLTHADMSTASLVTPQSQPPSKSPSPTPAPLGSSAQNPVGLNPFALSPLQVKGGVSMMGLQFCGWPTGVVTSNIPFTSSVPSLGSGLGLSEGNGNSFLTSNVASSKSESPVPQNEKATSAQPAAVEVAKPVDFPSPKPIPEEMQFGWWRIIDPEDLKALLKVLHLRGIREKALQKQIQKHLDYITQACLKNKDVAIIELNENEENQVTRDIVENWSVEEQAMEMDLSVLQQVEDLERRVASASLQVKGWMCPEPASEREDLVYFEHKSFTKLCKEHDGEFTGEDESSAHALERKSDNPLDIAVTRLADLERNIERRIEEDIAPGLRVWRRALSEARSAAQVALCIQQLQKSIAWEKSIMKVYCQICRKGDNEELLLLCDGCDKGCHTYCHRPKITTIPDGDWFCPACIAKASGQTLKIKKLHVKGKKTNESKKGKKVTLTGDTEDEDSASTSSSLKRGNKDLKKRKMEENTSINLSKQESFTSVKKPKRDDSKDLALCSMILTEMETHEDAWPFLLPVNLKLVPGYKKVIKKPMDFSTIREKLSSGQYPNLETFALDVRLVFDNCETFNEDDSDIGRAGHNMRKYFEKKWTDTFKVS
- MEASUREMENT DESCRIPTION: qHTS Assay for Inhibitors of BAZ2B; further: nearly all actives have a fitted effect of over 60% in size
- COND: AlphaScreen BAZ2B-H3K14Ac peptide displacement; series mostly up to 114 µM
In all, about 360,000 compounds went through this assay and about 16,000 (4.4%) were called active. Another 9% or so got no clear call; they are omitted. The call rests on the fitted dose curve; in most records, active means well fitted inhibition curve with a large enough effect; inconclusive means small, poorly fitted or top-dose-only effect; inactive means no such curve, though single readings can be large or run the other way. The sample holds actives, similar compounds and a random draw of the others, so the mix is not that of the screen.
Your response should consist of one outcome taken from 1 (yes) for active, 0 (no) for inactive

Check the results log: what was the call for O=C(N/N=C/c1cccnc1)c1cc2ccccc2cc1O ?
0 (no)

Same question for N/C(=N\OC(=O)Cc1ccccc1[N+](=O)[O-])c1ccc(Br)cc1 please.
0 (no)

What do you get for O=C(NNc1c2ccccc2nc2ccccc12)c1cc2ccccc2cc1O ?
1 (yes)

Subsequent entry: COC(=O)C(=Nc1ccccc1)/C(C(=O)C(=O)N(C)c1ccccc1)=C(\O)c1ccc(Cl)cc1
1 (yes)

And the next one, COC(=O)c1cn(C(=O)c2ccc(Cl)cc2)c2ccccc12 ?
0 (no)
